target: p-BTK (Phospho-Btk Tyr223) in TMD-8 cells (Homo sapiens, UniProt Q06187); construct: endogenous in cells; experiment: TMD8 cell line p-BTK Elisa assay; settings: pervanadate 100 μM, Tyr223 ELISA
Sequence (Q06187 whole entry): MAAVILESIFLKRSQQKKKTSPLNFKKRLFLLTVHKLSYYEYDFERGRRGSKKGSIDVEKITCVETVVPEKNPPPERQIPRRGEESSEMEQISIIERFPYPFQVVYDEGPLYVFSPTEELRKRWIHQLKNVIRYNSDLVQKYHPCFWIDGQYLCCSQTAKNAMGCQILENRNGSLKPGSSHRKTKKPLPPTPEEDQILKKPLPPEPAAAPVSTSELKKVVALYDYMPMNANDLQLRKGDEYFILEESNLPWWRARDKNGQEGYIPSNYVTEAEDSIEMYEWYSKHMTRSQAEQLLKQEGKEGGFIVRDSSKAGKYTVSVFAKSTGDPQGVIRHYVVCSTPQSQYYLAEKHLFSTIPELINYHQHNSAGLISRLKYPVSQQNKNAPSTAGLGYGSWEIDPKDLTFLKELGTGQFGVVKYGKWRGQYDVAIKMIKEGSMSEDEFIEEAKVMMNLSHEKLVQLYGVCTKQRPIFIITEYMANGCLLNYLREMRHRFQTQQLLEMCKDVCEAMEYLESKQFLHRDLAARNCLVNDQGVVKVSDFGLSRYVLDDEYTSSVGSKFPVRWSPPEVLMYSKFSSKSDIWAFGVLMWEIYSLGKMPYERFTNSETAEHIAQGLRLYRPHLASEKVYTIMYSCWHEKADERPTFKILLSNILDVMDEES
pIC50: −log10 of the molar value.
experimental_readout: pIC50

[[record]]
compound = "Nc1nccn2c(C3CCC(CO)OC3)nc(-c3ccc(Oc4ccccc4)cc3F)c12 (single isomer, unassigned) [Compound 2]"
measured = 7.54

[[record]]
compound = "Nc1ncnn2c(C3CCC(CO)OC3)nc(-c3ccc(Oc4ccccc4)cc3F)c12 (single isomer, unassigned) [Compound 10]"
measured = 7.54

[[record]]
compound = "Nc1ncnn2c(C3CCC(CO)OC3)nc(-c3ccc(Oc4ccccc4)cc3F)c12 (single isomer, unassigned) [Compound 11]"
measured = 7.46

